- Target system: T1, human claudin 18.2 (hCLDN18.2) (human)
- T1 construct: also called CLDN18 splice variant 2; HEK293-hCLDN18.2
- Method: flow cytometry on HEK293-hCLDN18.2 cells; 1 ug/mL; antibody heat treated at 70 C for 5 min
Measured FACS binding signal (read-out unnamed) by item
Number only, no unit.

A selection of reference data follows.
Binder	Recorded measurement
h5M9V7 humanized antibody (h5M9 VHv3 / h5M9 VLv1) (antibody, human IgG1, kappa, V domains shown, Human IgG1 (G1m17) / kappa) VH: QVQLKESGPGLVAPSETLSITCTVSGFSLTTYGVQWVRQPPGKGLEWLGAIWAGGNTNYNSALMSRLTISKDNSKSQVSLKMSSVTAADTAIYYCAKGGYGNAMDYWGQGTLVTVSS VL: DIVMTQSPSSLAVSLGERATMNCKSSQSLLNSGNQKNYLTWYQQKPGQPPKLLIYWASTRESGVPDRFSGSGSGTDFTLTISSVQAEDLAVYYCQNDYFFPFTFGQGTKLEIKR	294
h5M9V12 humanized antibody (h5M9 VHv4 / h5M9 VLv3) (antibody, human IgG1, kappa, V domains shown, Human IgG1 (G1m17) / kappa) VH: QVQLKESGPGLVAPSETLSITCTVSGFSLTTYGVQWVRQPPGKGLEWLGAIWAGGNTNYNSALMSRLTISKDNSKSQVSLKMSSLTAADTAIYYCAKGGYGNAMDYWGQGTLVTVSS VL: DIVMTQSPSSLAVSLGERVTMNCKSSQSLLNSGNQKNYLTWYQQKPGQPPKLLIYWASTRESGVPDRFTGSGSGTDFTLTISSVQAEDLAVYYCQNDYFFPFTFGSGTKLEIKR	411
175D10 human-mouse chimeric positive control antibody (antibody, V domains shown, Self-made, expressed in CHOS cells, Protein A purified; also called Benchmark) VH: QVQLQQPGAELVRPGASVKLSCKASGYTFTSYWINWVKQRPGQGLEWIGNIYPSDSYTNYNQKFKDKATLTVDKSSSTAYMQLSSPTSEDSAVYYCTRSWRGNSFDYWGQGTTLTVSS VL: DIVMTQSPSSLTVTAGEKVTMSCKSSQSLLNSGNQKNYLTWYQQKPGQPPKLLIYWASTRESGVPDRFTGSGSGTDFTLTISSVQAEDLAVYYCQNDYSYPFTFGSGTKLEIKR	296

Could you share which FACS binding signal (read-out unnamed) value was measured for h5M9v9 humanized antibody (h5M9 VHv3 / h5M9 VLv3) (antibody, V domains shown, Human IgG1 (G1m17) heavy and human kappa light constant regions) VH: QVQLKESGPGLVAPSETLSITCTVSGFSLTTYGVQWVRQPPGKGLEWLGAIWAGGNTNYNSALMSRLTISKDNSKSQVSLKMSSVTAADTAIYYCAKGGYGNAMDYWGQGTLVTVSS VL: DIVMTQSPSSLAVSLGERVTMNCKSSQSLLNSGNQKNYLTWYQQKPGQPPKLLIYWASTRESGVPDRFTGSGSGTDFTLTISSVQAEDLAVYYCQNDYFFPFTFGSGTKLEIK ?
242
